test_name: Ratio of itraconazole IC50 to compound IC50 for antiproliferative activity against mouse Ptch+/- p53-/- medulloblastoma cells isolated from allografts in nude Harlan mouse after 96 hrs
Assay type: functional, Medulloblastoma cell
Strictly below 0.5 in Ratio IC50: Satisfied. Otherwise: Not satisfied.

# molecule, assigned_label
rows = [
    ("O=c1n(-c2ccc(N3CCN(c4ccc(OC[C@@H]5CO[C@@](Cn6cncn6)(c6ccc(Cl)cc6Cl)O5)cc4)CC3)cc2)cnn1C1CCCCC1", "Satisfied"),
    ("CC(C)CCn1ncn(-c2ccc(N3CCN(c4ccc(OC[C@@H]5CO[C@@](Cn6cncn6)(c6ccc(Cl)cc6Cl)O5)cc4)CC3)cc2)c1=O", "Satisfied"),
    ("CC/C=C\\CCn1ncn(-c2ccc(N3CCN(c4ccc(OC[C@@H]5CO[C@@](Cn6cncn6)(c6ccc(Cl)cc6Cl)O5)cc4)CC3)cc2)c1=O", "Not satisfied"),
    ("[N-]=[N+]=NCCCCCCn1ncn(-c2ccc(N3CCN(c4ccc(OC[C@@H]5CO[C@@](Cn6cncn6)(c6ccc(Cl)cc6Cl)O5)cc4)CC3)cc2)c1=O", "Not satisfied"),
    ("CCC(CC)n1ncn(-c2ccc(N3CCN(c4ccc(OC[C@@H]5CO[C@@](Cn6cncn6)(c6ccc(Cl)cc6Cl)O5)cc4)CC3)cc2)c1=O", "Not satisfied"),
    ("CC[C@H](C)n1ncn(-c2ccc(N3CCN(c4ccc(OC[C@@H]5CO[C@@](Cn6cncn6)(c6ccc(Cl)cc6Cl)O5)cc4)CC3)cc2)c1=O", "Not satisfied"),
]
